Where do these numbers come from? They come from a collection of fitness landscapes (doi:10.1016/j.celrep.2020.107928).

Each record here notes measured one-hybrid fitness for binding NBS DNA.
B1: Caulobacter ParB omega fusion; a variant is named by its letters at X, in order, B8GW30 (parent)
chain: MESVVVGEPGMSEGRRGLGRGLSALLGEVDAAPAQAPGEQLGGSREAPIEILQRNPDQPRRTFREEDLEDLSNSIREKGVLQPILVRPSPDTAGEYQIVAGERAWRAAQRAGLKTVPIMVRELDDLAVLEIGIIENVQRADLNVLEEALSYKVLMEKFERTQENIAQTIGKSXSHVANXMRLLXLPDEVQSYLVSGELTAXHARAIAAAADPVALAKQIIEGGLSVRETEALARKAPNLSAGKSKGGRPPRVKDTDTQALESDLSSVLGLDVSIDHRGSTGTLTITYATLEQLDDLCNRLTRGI

# Variants of: B1
# method_summary: one-hybrid fitness for binding NBS DNA (the Noc-binding site; scaled: cognate 1, non-cognate 0); higher = stronger binding
# study_conditions: with NBS DNA site
Over roughly 81,000 sequences, “one-hybrid fitness for binding NBS DNA” has its median near -0.1; the highest 2% begin near 0.36. The entries come from a sample that favours the highest values as a whole.
experimental_endpoint: one-hybrid fitness for binding NBS DNA

variant_description=QQSH recorded_result=0.208
variant_description=QQSN recorded_result="≤ 0.2"
variant_description=FQVR recorded_result="≤ 0.2"
variant_description=QYYC recorded_result="≤ 0.2"
variant_description=QHDR recorded_result=0.336
variant_description=HAQP recorded_result="≤ 0.2"
variant_description=QTFG recorded_result="≤ 0.2"
variant_description=QSNR recorded_result=0.62
variant_description=QPDR recorded_result="≤ 0.2"
variant_description=EMAM recorded_result="≤ 0.2"
variant_description=QQHD recorded_result="≤ 0.2"
variant_description=NLDR recorded_result="≤ 0.2"
variant_description=RTQP recorded_result="≤ 0.2"
variant_description=IRGF recorded_result="≤ 0.2"
variant_description=QSDR recorded_result=0.317
variant_description=HHLI recorded_result="≤ 0.2"
variant_description=QTAQ recorded_result=0.251
variant_description=QQHN recorded_result="≤ 0.2"
variant_description=RTLH recorded_result="≤ 0.2"
variant_description=QQRN recorded_result=0.466
variant_description=RTQN recorded_result="≤ 0.2"
variant_description=QSNP recorded_result="≤ 0.2"
variant_description=QQWF recorded_result="≤ 0.2"
variant_description=RKKN recorded_result=0.252
variant_description=RTLR recorded_result=0.461
variant_description=RTLQ recorded_result="≤ 0.2"
variant_description=SVHI recorded_result="≤ 0.2"
variant_description=QQWG recorded_result="≤ 0.2"
